molecular target: human CRTH2-Rluc (Homo sapiens, UniProt Q9Y5Y4); assay: Functional antagonist BRET assay (CRTH2-Rluc / GFP2-β-arrestin2 in HEK293 cells); details: HEK293 cells stably expressing CRTH2-Rluc and GFP2-β-arr2, read-out: Antag. IC50
Sequence (Q9Y5Y4 whole entry): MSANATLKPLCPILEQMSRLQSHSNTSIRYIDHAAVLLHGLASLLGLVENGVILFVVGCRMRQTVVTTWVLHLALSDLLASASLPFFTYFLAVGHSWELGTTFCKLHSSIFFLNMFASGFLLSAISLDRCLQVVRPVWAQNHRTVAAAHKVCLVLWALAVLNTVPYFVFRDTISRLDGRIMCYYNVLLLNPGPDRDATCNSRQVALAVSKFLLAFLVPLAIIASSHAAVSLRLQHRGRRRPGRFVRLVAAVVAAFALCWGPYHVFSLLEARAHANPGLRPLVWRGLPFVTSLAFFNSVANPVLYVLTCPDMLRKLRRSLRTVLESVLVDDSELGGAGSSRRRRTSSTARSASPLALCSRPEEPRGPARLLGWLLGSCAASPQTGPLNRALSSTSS
pIC50: −log10 of the molar value.
QUANTITY_MEASURED: pIC50

{"MOLECULE": "O=C(O)COc1ccc(Br)cc1-c1nc(C2(c3c(Cl)cccc3Cl)CC2)no1", "QUANTITY_MEASURED": "pIC50", "RESULT": "> 6.30"}
{"MOLECULE": "CC(C)C(=O)N1CCC(c2ccccc2)(c2noc(-c3cc(Br)ccc3OCC(=O)O)n2)CC1", "QUANTITY_MEASURED": "pIC50", "RESULT": "> 6.30"}
{"MOLECULE": "O=C(O)COc1ccc(Br)cc1-c1nc(C(c2ccc(F)cc2)N2CCS(=O)(=O)CC2)no1 (stereo not shown)", "QUANTITY_MEASURED": "pIC50", "RESULT": "> 6.30"}

IN: Find the recorded pIC50 belonging to O=C(O)COc1ccc(Br)cc1-c1nc(C2(c3ccccc3)CCN(C(=O)CO)CC2)no1 and report it.
OUT: > 6.30

IN: Field entry: O=C(O)COc1ccc(Br)cc1-c1nc(C2(c3ccc(F)cc3)CC2)no1
OUT: > 6.30

IN: Field entry: COC(=O)N1CCC(c2ccccc2)(c2noc(-c3cc(Br)ccc3OCC(=O)O)n2)CC1
OUT: > 6.30

Numbers sourced from patent US20080312220A1.
